- assayed.system: full-length beta-Catenin (Uniprot ID P35222) (Homo sapiens, UniProt P35222)
- Construct: 10 nM full-length beta-Catenin (Uniprot ID P35222)
- Sequence (P35222 whole entry): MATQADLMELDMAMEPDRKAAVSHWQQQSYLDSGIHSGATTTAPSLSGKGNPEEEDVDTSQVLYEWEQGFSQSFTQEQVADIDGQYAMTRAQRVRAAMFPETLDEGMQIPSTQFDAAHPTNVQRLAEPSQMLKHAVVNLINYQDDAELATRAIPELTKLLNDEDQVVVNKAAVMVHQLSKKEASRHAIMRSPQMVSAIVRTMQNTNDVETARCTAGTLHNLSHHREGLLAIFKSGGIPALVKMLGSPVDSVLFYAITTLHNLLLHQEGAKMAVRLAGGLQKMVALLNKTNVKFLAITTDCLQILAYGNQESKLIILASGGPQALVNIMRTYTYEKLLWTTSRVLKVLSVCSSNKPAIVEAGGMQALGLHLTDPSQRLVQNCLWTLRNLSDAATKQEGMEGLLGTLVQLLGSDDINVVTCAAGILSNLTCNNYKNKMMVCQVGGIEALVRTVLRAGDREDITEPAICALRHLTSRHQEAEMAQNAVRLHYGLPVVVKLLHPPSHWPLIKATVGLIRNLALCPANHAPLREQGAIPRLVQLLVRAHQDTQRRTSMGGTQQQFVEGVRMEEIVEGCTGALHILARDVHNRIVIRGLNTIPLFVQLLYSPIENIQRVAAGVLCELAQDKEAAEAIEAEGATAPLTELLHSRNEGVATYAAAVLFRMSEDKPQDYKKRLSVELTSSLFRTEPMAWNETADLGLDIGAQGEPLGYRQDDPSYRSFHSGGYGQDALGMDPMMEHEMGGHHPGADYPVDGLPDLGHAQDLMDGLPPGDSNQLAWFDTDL
- experimental.details: Fluorescence polarization IC50 (beta-catenin / 5FAM-TCF4 10-53 competition)
- Format: binding
- details: fluorescence polarization; read-out: beta-Catenin FP IC50
result.type: IC50 (nM)
Give your result in nM as a bare value.

Worked examples follow.
- CC(=O)N1CCC[C@]12CCCCCC1(CCCCCCCOC(=O)N3CC[C@@](C(=O)N[C@@H](Cc4ccsc4)C(=O)N[C@@H](Cc4csc5ccccc45)C(=O)N[C@@H](CCC(N)=O)C(N)=O)(C3)NC(=O)[C@H](CC(C)C)NC(=O)[C@H](Cc3ccccc3)NC(=O)[C@H](C)NC(=O)[C@H](C)NC(=O)[C@H](CC(=O)O)NC(=O)[C@H](CC(=O)O)NC1=O)NC(=O)[C@H](CC(C)(C)C)NC(=O)[C@H](CC(=O)O)NC2=O (some centres unmarked) [I-1975]: 745
- CC(=O)N1CCC[C@]12CC=CCCCC1(CCCC=CCCCOC(=O)N3CC[C@@](C(=O)N[C@@H](Cc4ccsc4)C(=O)N[C@@H](Cc4csc5ccccc45)C(=O)N[C@@H](C)C(N)=O)(C3)NC(=O)[C@H](C(C)C)NC(=O)[C@H](Cc3ccccc3)NC(=O)[C@H](C)NC(=O)[C@H](CCC(N)=O)NC(=O)[C@H](Cc3cccc(C(=O)O)c3)NC(=O)[C@H](CC(=O)O)NC1=O)NC(=O)[C@H](CC(C)(C)C)NC(=O)[C@H](CC(=O)O)NC2=O (some centres unmarked) [I-2054]: 5
- CC(=O)N1CCC[C@]12CC=CCCCC1(CCCC=CCCCOC(=O)N3CC[C@@](C(=O)N[C@@H](Cc4ccsc4)C(=O)N[C@@H](Cc4csc5ccccc45)C(=O)N[C@H](CO)[C@@H](C)O)(C3)NC(=O)[C@H](Cc3ccccc3)NC(=O)[C@H](Cc3ccccc3)NC(=O)[C@H](C)NC(=O)[C@H](C)NC(=O)[C@H](Cc3ccccc3C(=O)O)NC(=O)[C@H](CC(=O)O)NC1=O)NC(=O)[C@H](CC(C)(C)C)NC(=O)[C@H](CC(=O)O)NC2=O (single isomer, unassigned) [I-1668]: 29

# return recorded IC50 for entry CC(=O)N1CCC[C@]12CC=CCCCC1(CCCC=CCCCOC(=O)N3CCC(C(=O)N[C@@H](Cc4ccccc4C(F)(F)F)C(=O)N[C@@H](Cc4csc5ccccc45)C(=O)N[C@@H](C)C(N)=O)(CC3)NC(=O)[C@H](CC(C)C)NC(=O)[C@H](Cc3ccccc3)NC(=O)[C@H](C)NC(=O)[C@H](CCC(N)=O)NC(=O)[C@H](Cc3cccc(C(=O)O)c3)NC(=O)[C@H](CC(=O)O)NC1=O)NC(=O)[C@H](CC(C)(C)C)NC(=O)[C@H](CC(=O)O)NC2=O (some centres unmarked) [I-2585]
452

Complete the entry with IC50 for CC(=O)N1CCC[C@]12CC=CCCCC1(CCCC=CCCCCCC[C@@](C)(C(=O)N[C@@H](Cc3ccccc3)C(=O)N[C@@H](Cc3csc4ccccc34)C(=O)N[C@@H](CCC(N)=O)C(N)=O)NC(=O)[C@H](CCC(N)=O)NC(=O)[C@H](Cc3ccccc3)NC(=O)[C@H](C)NC(=O)[C@H](C)NC(=O)[C@H](CCC(=O)O)NC(=O)[C@H](CC(=O)O)NC1=O)NC(=O)[C@H]([C@@H](C)O)NC(=O)[C@H](CC(=O)O)NC2=O (some centres unmarked) [I-477]
119
